Sourced from PubChem BioAssay AID192

Test system: BDF1 mice, B16 melanoma ip, median survival T/C
Assay: NCI In Vivo Anticancer Drug Screen. Data for tumor model B16 Melanoma (intraperitoneal) in B6D2F1 (BDF1) mice
Settings: endpoint: median survival time; dose: 100.0 mg/kg/injection; schedule: Q01DX009 (ip); vehicle: saline; higher = longer survival
Procedure: The antitumor activity of compounds was measured in mice bearing transplantable tumors. Survival or tumor size were measured and the results are expressed as the measurement made in the treated group (T) divided by the measurement made in the vehicle treated control group (C). The tumor model used in this assay is B16 Melanoma (intraperitoneal) in B6D2F1 (BDF1) mice
Toxic doses and inconclusive results are not listed.
READOUT_TYPE: T/C

Solved cases (10 shown):
# MOLECULE, T/C
measured = [
    ("CN(C)C1CC1c1ccccc1 (stereo not drawn)", "98 % of control"),
    ("OC1CCC(O)C1(Cl)Cl (stereo not drawn)", "91 % of control"),
    ("OC(CI)C(O)C(O)C(O)CI (stereo not drawn)", "97 % of control"),
    ("OCC(O)c1ccccn1 (stereo not drawn)", "123 % of control"),
    ("N#CCc1ccccc1S(=O)(=O)O", "103 % of control"),
    ("CC(C)C(N)C(=O)Nc1nncs1 (stereo not drawn)", "102 % of control"),
    ("COc1ccc(C(C#N)CC(=O)c2ccc3c(c2)OCO3)cc1OC (stereo not drawn)", "103 % of control"),
    ("OCCOCCOCCN1CCN(C(c2ccccc2)c2ccc(Cl)cc2)CC1 (stereo not drawn)", "86 % of control"),
    ("CC(=O)CC(=O)NCc1ccncc1", "118 % of control"),
    ("CN(C)CCCC(=O)O", "98 % of control"),
]

[ask] API: value(readout=T/C, system=BDF1 mice, B16 melanoma ip, median survival T/C) for record CN1C(=O)OC(C)(C)C1=O
[reply] 100 % of control

[ask] API: value(readout=T/C, system=BDF1 mice, B16 melanoma ip, median survival T/C) for record O=C(O)O
[reply] 102 % of control

[ask] API: value(readout=T/C, system=BDF1 mice, B16 melanoma ip, median survival T/C) for record O=C(O)CCC1CCC(=O)OC1=O (stereo not drawn)
[reply] 112 % of control

---

System: BDF1 mice, B16 melanoma ip, median survival T/C
Assay: NCI In Vivo Anticancer Drug Screen. Data for tumor model B16 Melanoma (intraperitoneal) in B6D2F1 (BDF1) mice
Conditions: endpoint: median survival time; dose: 50.0 mg/kg/injection; schedule: Q01DX009 (ip); vehicle: saline with Tween-80; higher = longer survival
Procedure: The antitumor activity of compounds was measured in mice bearing transplantable tumors. Survival or tumor size were measured and the results are expressed as the measurement made in the treated group (T) divided by the measurement made in the vehicle treated control group (C). The tumor model used in this assay is B16 Melanoma (intraperitoneal) in B6D2F1 (BDF1) mice
Toxic doses and inconclusive results are not listed.
T/C overview

Solved cases (2 shown):
# MOLECULE_SMILES, T/C
measured = [
    ("Nc1ccc2c(c1)CN1C(=O)c3ccccc3C1=N2", "111 % of control"),
    ("NC(=O)NNc1ccc([N+](=O)[O-])cc1[N+](=O)[O-]", "97 % of control"),
]

Field: next molecule
[ask] Which T/C value is on record for CCCCCCCCN(C)N=Nc1ccc(Cl)cc1C(=O)O ?
[reply] 103 % of control

---

tested on: BDF1 mice, B16 melanoma ip, median survival T/C; experiment: NCI In Vivo Anticancer Drug Screen. Data for tumor model B16 Melanoma (intraperitoneal) in B6D2F1 (BDF1) mice; conditions: endpoint: median survival time; dose: 6.25 mg/kg/injection; schedule: Q01DX009 (ip); vehicle: saline
Toxic doses and inconclusive results are not listed. The calls were made as follows: active = survival T/C of 150% or more; inactive = T/C below 125% in these data.
Lab note: assign the record to one of class 1 for active, class 0 for inactive

Some solved entries appear below for comparison.
# COMPOUND, CLASS_NAME
rows = [
    ("CN(C)C(=O)c1cccc(COc2ccc(N3C(N)=NC(N)=NC3(C)C)cc2Cl)c1", "class 0"),
    ("COC12C(COC(=O)NCCO)C3=C(C(=O)C(C)=C(N)C3=O)N1CC1NC12 (configuration not stated)", "class 0"),
    ("CC1(C)N=C(N)N=C(N)N1c1ccc(F)c(C(F)(F)F)c1", "class 0"),
    ("CC(CC1c2ccccc2CCc2ccccc21)CN(C)C (configuration not stated)", "class 0"),
    ("COc1cc(NS(C)(=O)=O)ccc1Nc1c2ccccc2nc2ccccc12", "class 0"),
    ("NC1CC1c1ccccc1 (configuration not stated)", "class 0"),
    ("CCCCOB(/C=C/Sc1ccccc1)OCCCC", "class 0"),
    ("O=P(N1CCOCC1)(N1CC1)N1CC1", "class 0"),
]

[ask] In this assay, the call recorded for CC(CN1CCN(C)CC1)CN1c2ccccc2Sc2ccc(C(F)(F)F)cc21 (configuration not stated) was what?
[reply] class 0

[ask] In this assay, the call recorded for CC[N](CC)[Ge]([CH2]C)[CH2]C.CC[N](CC)[Ge]([CH2]C)[CH2]C was what?
[reply] class 0

[ask] In this assay, the call recorded for CCCC(C(=O)OCCN(CC)CC)(c1ccccc1)c1ccccc1 was what?
[reply] class 0

[ask] In this assay, the call recorded for CC[P+](CC)(CC)c1ccccc1 was what?
[reply] class 0

[ask] In this assay, the call recorded for COc1cccc2c1C(=O)c1c(O)c3c(c(O)c1C2=O)C[C@@](O)(C(C)=O)C[C@@H]3OC1CC(NC(C)=O)C(O)C(C)O1 (some centres not stated) was what?
[reply] class 1

[ask] In this assay, the call recorded for O=C1C=CC(n2cc(F)c(=O)[nH]c2=O)O1 (configuration not stated) was what?
[reply] class 0

---

tested on: BDF1 mice, B16 melanoma ip, median survival T/C; assay: NCI In Vivo Anticancer Drug Screen. Data for tumor model B16 Melanoma (intraperitoneal) in B6D2F1 (BDF1) mice; details: endpoint: median survival time; dose: 12.5 mg/kg/injection; schedule: Q01DX009 (ip); vehicle: saline; higher = longer survival
Toxic doses and inconclusive results are not listed.
READOUT_TYPE: T/C

Solved cases (2 shown):
# COMPOUND, MEASURED_TARGET, T/C
records = [
    ("CC(N)Cc1cn(C)c2ccccc12 (stereo not drawn)", "BDF1 mice, B16 melanoma ip, median survival T/C", "105 % of control"),
    ("CC(=O)OC(CC(=O)CC(O)(C(F)(F)F)C(F)(F)F)(C(F)(F)F)C(F)(F)F", "BDF1 mice, B16 melanoma ip, median survival T/C", "92 % of control"),
]

[ask] Which T/C value is on record for CC(=O)N(NC(C)C)C(C)C ?
[reply] 103 % of control

[ask] Which T/C value is on record for OC(c1ccccc1)(c1ccccc1)C1CC1c1ccncc1 (stereo not drawn) ?
[reply] 113 % of control

[ask] Which T/C value is on record for CC(=O)OCC1OC(n2cnc3c(=S)nc(N)[nH]c32)C(OC(C)=O)C1OC(C)=O (stereo not drawn) ?
[reply] 105 % of control

[ask] Which T/C value is on record for CC(CCc1ccccc1)NN (stereo not drawn) ?
[reply] 113 % of control

[ask] Which T/C value is on record for CC(CN1CCN(C)CC1)CN1c2ccccc2Sc2ccc(C(F)(F)F)cc21 (stereo not drawn) ?
[reply] 107 % of control

[ask] Which T/C value is on record for N#CCCc1ccccc1 ?
[reply] 100 % of control

---

System: BDF1 mice, B16 melanoma ip, median survival T/C
Test: NCI In Vivo Anticancer Drug Screen. Data for tumor model B16 Melanoma (intraperitoneal) in B6D2F1 (BDF1) mice
Settings: endpoint: median survival time; dose: 5.0 mg/kg/injection; schedule: Q01DX009 (ip); vehicle: saline with Tween-80; higher = longer survival
Procedure: The antitumor activity of compounds was measured in mice bearing transplantable tumors. Survival or tumor size were measured and the results are expressed as the measurement made in the treated group (T) divided by the measurement made in the vehicle treated control group (C). The tumor model used in this assay is B16 Melanoma (intraperitoneal) in B6D2F1 (BDF1) mice
Toxic doses and inconclusive results are not listed.
T/C overview

[ask] Which T/C value is on record for CC(=O)N1CCC2(CC1)SSC1(CCN(C(C)=O)CC1)S2 ?
[reply] 105 % of control

[ask] Which T/C value is on record for O=C1C=C[C@H](O)[C@@]2(CO)O[C@@H]12 ?
[reply] 122 % of control

[ask] Which T/C value is on record for CCOC(=O)CCC[P+](c1ccccc1)(c1ccccc1)c1ccccc1 ?
[reply] 117 % of control

---

system: BDF1 mice, B16 melanoma ip, median survival T/C; assay: NCI In Vivo Anticancer Drug Screen. Data for tumor model B16 Melanoma (intraperitoneal) in B6D2F1 (BDF1) mice; details: endpoint: median survival time; dose: 50.0 mg/kg/injection; schedule: Q01DX009 (ip); vehicle: Klucel (hydroxypropylcellulose) (HPC); higher = longer survival
Toxic doses and inconclusive results are not listed.
READOUT_TYPE: T/C

Solved cases (8 shown):
# COMPOUND, T/C
data = [
    ("O=C(O)c1cc2oc3ccccc3c2cc1O", "116 % of control"),
    ("Cc1ccc(NC(=O)Nc2ccccc2C)c(C)c1", "115 % of control"),
    ("C=C1C(=O)OC2CC(C)C3(O)CCC(C)(CC(OC(=O)C(C)C)C12)O3 (centres undefined)", "99 % of control"),
    ("O=C(O)/C=C/C(=O)Nc1ccc(N=Nc2ccccc2)cc1", "104 % of control"),
    ("NC(=O)c1ncn(C2OC(CO)C(O)C2O)c1O (centres undefined)", "114 % of control"),
    ("O=C(CCCN1CC=C(n2c(=O)[nH]c3ccccc32)CC1)c1ccc(F)cc1", "97 % of control"),
    ("CCCC(C#N)(c1ccccc1)c1ccccc1", "90 % of control"),
    ("CS(=O)(=O)c1ccnc2ccccc12", "91 % of control"),
]

[ask] API: value(readout=T/C, system=BDF1 mice, B16 melanoma ip, median survival T/C) for record COC1=C(N=[N+]=[N-])C(=O)C(OC)=C(N=[N+]=[N-])C1=O
[reply] 94 % of control
